These measurements were taken from paper PMC12091843.

Tested on: AB 17978
OUTCOME MEASURE: MIC

Below, 2 molecules whose answers are already recorded.
c1ccc(CSc2nc3ccc(-c4ccccc4)cc3cc2CNCc2ccc(CN3CCCC3)cc2)cc1 [WSA269] :: > 128 µg/mL
Brc1ccc2nc(SCc3ccccc3)c(CNCc3ccc(CN4CCCC4)cc3)cc2c1 [WSA256] :: > 128 µg/mL

Let's switch to this molecule now.
Reported MIC, molecule c1ccc(CSc2nc3ccccc3cc2CNCc2ccc(N3CCCCC3)cc2)cc1 [WSA248] : ____
> 128 µg/mL

====

Tested on: PA 2108 (MDR)
EXPERIMENT: Broth microdilution antibacterial activity
Assay type: cell-based, Pseudomonas aeruginosa
EXPERIMENTAL PARAMETERS: Pseudomonas aeruginosa, read-out: MIC PA 2108 (MDR)
# MIC per record follows
Could you give me the number in µg/mL? Just the number is fine.

c1ccc(CSc2nc3ccccc3cc2CNCc2ccc(CN3CCCC3)cc2)cc1 [WSA249] :: 16
CN1CCN(CCNCc2cc3ccccc3nc2SCc2ccccc2)CC1 [WSA250] :: 64
CN1CCN(CCNCc2cc3cc(Br)ccc3nc2SCc2ccccc2)CC1 [WSA257] :: 16

Reported MIC, molecule Brc1ccc2nc(SCc3ccccc3)c(CNCCC3CCN(C4CCCC4)CC3)cc2c1 [WSA255] : ____
32

Reported MIC, molecule CCN1CCC(CCNCc2cc3cc(OC)c(OC)c(OC)c3nc2SCc2ccccc2)CC1 [WSA251] : ____
128

Reported MIC, molecule COc1cc2cc(CNCCN3CCN(C)CC3)c(SCc3ccccc3)nc2c(OC)c1OC [WSA253] : ____
128

Reported MIC, molecule CCN1CCC(CCNCc2cc3cc(Br)ccc3nc2SCc2ccccc2)CC1 [WSA254] : ____
32

Reported MIC, molecule COc1cc2cc(CNCCC3CCN(C4CCCC4)CC3)c(SCc3ccccc3)nc2c(OC)c1OC [WSA252] : ____
64

====

System: PA 2108 (MDR)
EXPERIMENT: Broth microdilution antibacterial activity
Type: cell-based, Pseudomonas aeruginosa
EXPERIMENTAL PARAMETERS: Pseudomonas aeruginosa, read-out: MIC PA 2108 (MDR)
OUTCOME MEASURE: MIC (µg/mL)
Could you give me the number in µg/mL? Just the number is fine.

Below, 2 molecules whose answers are already recorded.
c1ccc(CSc2nc3ccc(-c4ccccc4)cc3cc2CNCCC2CCN(C3CCCC3)CC2)cc1 :: 64
O=C(N[C@H](CO)[C@H](O)c1ccc([N+](=O)[O-])cc1)C(Cl)Cl [Chloramphenicol, reference compound] :: 64

Let's switch to this molecule now.
Reported MIC, molecule CCN1CCC(CCNCc2cc3cc(-c4ccccc4)ccc3nc2SCc2ccccc2)CC1 : ____
64

====

System: PA 2108 (MDR)
EXPERIMENT: Broth microdilution antibacterial activity
Type: cell-based, Pseudomonas aeruginosa
EXPERIMENTAL PARAMETERS: Pseudomonas aeruginosa, read-out: MIC PA 2108 (MDR)
OUTCOME MEASURE: MIC

Below, 2 compounds whose answers are already recorded.
c1ccc(CSc2nc3ccccc3cc2CNCc2ccc(N3CCCCC3)cc2)cc1 :: > 128 µg/mL
Brc1ccc2nc(SCc3ccccc3)c(CNCc3ccc(CN4CCCC4)cc3)cc2c1 :: > 128 µg/mL

Let's switch to this compound now.
Reported MIC, compound c1ccc(CSc2nc3ccc(-c4ccccc4)cc3cc2CNCc2ccc(CN3CCCC3)cc2)cc1 : ____
> 128 µg/mL
